system: mir-21 pri-miRNA; test: mir-21 pri-miRNA expression in HeLa cells (real-time RT-PCR); format: cell-based, human; settings: HeLa cells, 100 nM, real-time RT-PCR
In the oligonucleotide strings, read from the 5' end, every base follows the letter of its sugar. An asterisk marks phosphorothioate; unmarked linkages are phosphodiester. Other units and linkages are bracketed, terminal groups are in braces. A string of capitals states the bases alone. e = 2'-O-(2-methoxyethyl) (MOE); [5mC] = 5-methylcytosine; d = 2'-deoxy (DNA)
experimental.readout: mir-21 pri-miRNA expression % UTC (% UTC)
Express it in % UTC; write the number only.

Measured mir-21 pri-miRNA expression % UTC, 358775 (antisense eA*e[5mC]*eA*eG*e[5mC]*e[5mC]*e[5mC]*eA*eT*e[5mC]*eG*eA*e[5mC]*eT*eG*eG*eT*eG*eT*eT) [compound 358775] : 222

Measured mir-21 pri-miRNA expression % UTC, 358781 (antisense eT*eA*eA*eT*eG*eT*eT*eT*eA*eA*eA*eT*eG*eA*eG*eA*eA*e[5mC]*eA*eT) [compound 358781] : 122

Measured mir-21 pri-miRNA expression % UTC, 358767 (eG*eG*eA*eG*eA*eT*eG*eT*e[5mC]*eA*e[5mC]*eG*eA*eT*eG*eG*eT*eA*eG*eG; antisense) [compound 358767] : 248

Measured mir-21 pri-miRNA expression % UTC, 358770 (eA*eG*eT*e[5mC]*eT*eG*eA*eT*eA*eA*eG*e[5mC]*eT*eA*e[5mC]*e[5mC]*e[5mC]*eG*eA*e[5mC]; antisense) [compound 358770] : 250

Measured mir-21 pri-miRNA expression % UTC, 327863 (antisense ACGCTAGCCTAATAGCGAGG; sugars from the 5' end e5 d10 e5, all phosphorothioate, methylation of C not given here) [compound 327863] : 107

Measured mir-21 pri-miRNA expression % UTC, 358784 (antisense e[5mC]*eG*eA*e[5mC]*eA*eA*eG*eG*eT*eG*eG*eT*eA*e[5mC]*eA*eG*e[5mC]*e[5mC]*eA*eT) [compound 358784] : 358

====

tested on: PPARγ; assay: PPARγ mRNA expression in adipocytes (real-time PCR); type: cell-based, human; details: Table 17; differentiating adipocytes; control = treatment with ISIS 342673
In the oligonucleotide strings, read from the 5' end, every base follows the letter of its sugar. An asterisk marks phosphorothioate; unmarked linkages are phosphodiester. Other units and linkages are bracketed, terminal groups are in braces. A string of capitals states the bases alone. e = 2'-O-(2-methoxyethyl) (MOE); [5mC] = 5-methylcytosine
I'd appreciate it if you could supply PPAR gamma mRNA values for the items below.

Measured PPAR gamma mRNA, 328132 (antisense eG*eT*eG*eA*eG*eA*eG*eT*eA*eG*e[5mC]*eA*eT*eG*eT*eT*eT*eG*eT*e[5mC]*eT) [compound 328132] : 90.0 percentage of control

Measured PPAR gamma mRNA, 328122 (antisense e[5mC]*eA*eA*eA*eA*e[5mC]*eA*eT*eA*eA*eA*eA*eA*eT*e[5mC]*e[5mC]*eT*eT*eG*e[5mC]*eA) [compound 328122] : 77.8 percentage of control

Measured PPAR gamma mRNA, 328135 (eA*e[5mC]*e[5mC]*eG*eA*eA*e[5mC]*eA*eA*eA*eG*eT*e[5mC]*eT*eG*eA*e[5mC]*eA*eG*eG*eA; anti-miR) [compound 328135] : 70.0 percentage of control

Measured PPAR gamma mRNA, 328131 (antisense eA*eT*eA*eT*eG*eT*e[5mC]*eA*eT*eA*eT*e[5mC]*eA*eA*eA*e[5mC]*eT*e[5mC]*e[5mC]*eT*eA) [compound 328131] : 88.2 percentage of control
